Experiment: Storage stability of acylcarnitine-stable isotopes in methanol solution at room temperature (Reference Example 1, LC-MS/MS residual rate)
Type: physicochemical
Conditions: storage period 1 M (one month)
Description: Acylcarnitine solutions were acquired by dissolving acylcarnitine-stable isotopes into methanol to concentrations listed in Table 3. The acylcarnitine-stable isotopes were measured under the following conditions. The acylcarnitine solutions were measured immediately before storage (prepared at the time of use) and after storage for predetermined periods, and the residual rate (%) was calculated from the acquired peak area ratio using Equation 2 described below. […]
property: Res. Rt (Residual Rate)

{"molecule": "[2H]C([2H])([2H])[N+](C)(C)CC(CC(=O)[O-])OC(=O)CC(C)(C)O (centres unmarked) [^2H3-(3-Hydroxyisovaleryl)-carnitine]", "property": "Res. Rt (Residual Rate)", "testResult": "99.9%"}
{"molecule": "[2H]C([2H])([2H])[N+](C)(C)CC(CC(=O)[O-])OC(=O)CCCCCCC (centres unmarked) [^2H3-Octanoylcarnitine]", "property": "Res. Rt (Residual Rate)", "testResult": "103.3%"}
{"molecule": "[2H]C([2H])([2H])[N+](C)(C)CC(CC(=O)[O-])OC(=O)CCCCCCCCCCC (centres unmarked) [^2H3-Dodecanoylcarnitine]", "property": "Res. Rt (Residual Rate)", "testResult": "103.1%"}
{"molecule": "[2H]C([2H])([2H])[N+](C)(C)CC(CC(=O)[O-])OC(=O)CCCC(=O)O (centres unmarked) [^2H3-Glutarylcarnitine]", "property": "Res. Rt (Residual Rate)", "testResult": "99.3%"}
{"molecule": "[2H]C([2H])([2H])[N+](C)(C)CC(CC(=O)[O-])OC(=O)CC (centres unmarked) [^2H3-Propionylcarnitine]", "property": "Res. Rt (Residual Rate)", "testResult": "97.4%"}
{"molecule": "[2H]C([2H])([2H])[N+](CC(CC(=O)[O-])OC(=O)CCCCCCCCCCCCC)(C([2H])([2H])[2H])C([2H])([2H])[2H] (centres unmarked) [^2H9-Myristoylcarnitine]", "property": "Res. Rt (Residual Rate)", "testResult": "103.9%"}
{"molecule": "[2H]C([2H])([2H])[N+](C[C@H](O)CC(=O)[O-])(C([2H])([2H])[2H])C([2H])([2H])[2H] [^2H9-Carnitine]", "property": "Res. Rt (Residual Rate)", "testResult": "100.9%"}
{"molecule": "[2H]C([2H])([2H])[N+](CC(CC(=O)[O-])OC(=O)CC(C)C)(C([2H])([2H])[2H])C([2H])([2H])[2H] (centres unmarked) [^2H9-Isovalerylcarnitine]", "property": "Res. Rt (Residual Rate)", "testResult": "100.3%"}
{"molecule": "[2H]C([2H])([2H])[N+](C)(C)CC(CC(=O)[O-])OC(=O)CCC (centres unmarked) [^2H3-Butyrylcarnitine]", "property": "Res. Rt (Residual Rate)", "testResult": "101.7%"}
{"molecule": "[2H]C([2H])([2H])[N+](C)(C)CC(CC(=O)[O-])OC(=O)CCCCCCCCCCCCCCCCC (centres unmarked) [^2H3-Octadecanoylcarnitine]", "property": "Res. Rt (Residual Rate)", "testResult": "103.7%"}
{"molecule": "[2H]C([2H])([2H])[N+](C)(C)CC(CC(=O)[O-])OC(=O)CCCCCCCCCCCCCCC (centres unmarked) [^2H3-Palmitoylcarnitine]", "property": "Res. Rt (Residual Rate)", "testResult": "101.2%"}
